Measured phenotypically active values are reported for all entries that follow.
System: HepG2-GM130-SQSTM1
Assay: phenotypically active (imaging signature differs from DMSO and reproducible) at any of 0.3-9 uM (binary (1 = active, 0 = inactive)); higher = active
Settings: treatment time: 24 h
Where a name gives a salt, the structure may show the parent alone.
propertyName: phenotypically active

C[N+](C)(C)CCCCCC[N+](C)(C)C [Hexamethonium bromide] : 0
O=c1cc(N2CCOCC2)oc2c1ccc1ccccc12 : 0
CNC(=O)c1c(-c2ccc(F)cc2)oc2cc(N(CCO)S(C)(=O)=O)c(C3CC3)cc12 [nesbuvir] : 0
COc1ccccc1-c1c[nH]c2ncc(-c3cncc(C(=O)N(C)C)c3)cc12 : 1
COC(=O)[C@@H]1[C@H]2C[C@H]3c4[nH]c5ccccc5c4CCN3C[C@@H]2CC[C@@H]1O [Yohimbine hydrochloride] : 0
COc1ccc(C[C@@H]2c3cc(OC)c(OC)cc3CC[N@+]2(C)CCC(=O)OCCCCCOC(=O)CC[N@@+]2(C)CCc3cc(OC)c(OC)cc3[C@H]2Cc2ccc(OC)c(OC)c2)cc1OC [Cisatracurium besylate] : 1
O=C(O)c1c(Sc2ccccc2)c2cc(Cl)ccc2n1Cc1ccc(Cl)cc1 : 0
O=C1CCc2ccc(OCCCCN3CCN(c4cccc(Cl)c4Cl)CC3)cc2N1 [aripiprazole] : 0
CC(C)[N@+]1(C)[C@@H]2CC[C@H]1C[C@@H](OC(=O)C(CO)c1ccccc1)C2 (some centres undefined) [ipratropium] : 0
